Recorded values, source patent US8735398B2.

test system: HCV 1b genotype; experiment: HCV replicon assay (HCV-neo replicon cells, wild-type); type: cell-based, Hepatitis C virus; settings: Hepatitis C virus, HCV 1b genotype replicon; class symbol; read-out: EC50 Range against HCV 1b
pEC50: −log10 of the molar value.
measure_name: pEC50

In the examples that follow, each entry is paired with its recorded pEC50.
molecule	measure_name	value_observed
CC(C)(C)O[C@@H]1C[C@@H](C(=O)Nc2ccc(-c3cc(-c4ccc(NC(=O)[C@@H]5C[C@@H](OC(C)(C)C)CN5C(=O)OCc5ccccc5)cc4)[nH]n3)cc2)N(C(=O)OCc2ccccc2)C1 [OL-49]	pEC50	6.00 to 7.00
O=C(Cc1ccccc1)NC1(C(=O)Nc2ccc(-c3cnc(-c4ccc(NC(=O)C5(NC(=O)Cc6ccccc6)CC5)cc4)o3)cc2)CC1 [JG-18]	pEC50	5.00 to 6.00
O=C(Nc1ccc(-c2n[nH]nc2-c2ccc(NC(=O)[C@@H]3CCCN3C(=O)Cc3ccccc3)cc2)cc1)[C@@H]1CCCN1C(=O)Cc1ccccc1 [OL-20]	pEC50	7.00 to 8.34

Ask | Return reported pEC50; argument: NC(=O)[C@@H]1C[C@@H]2C[C@@H]2N1C(=O)C1c2ccccc2C=CN1c1ccc(-c2ncc(-c3ccc(NC(=O)[C@@H]4C[C@@H]5C[C@@H]5N4C(=O)c4nccc5ccccc45)cc3)o2)cc1 (stereo partly drawn) [CB-2]
Reply | 6.00 to 7.00

Ask | Same for O=C(Nc1ccc(-c2cc(-c3ccc(NC(=O)[C@@H]4C=CCN4C(=O)C4CC4)cc3)[nH]n2)cc1)[C@@H]1C=CCN1C(=O)C1CC1 [OL-37]
Reply | 5.00 to 6.00

Ask | Now try C[C@H](NC(=O)[C@@H](O)c1ccccc1)C(=O)Nc1ccc(-c2nnc(-c3ccc(NC(=O)[C@H](C)NC(=O)[C@@H](O)c4ccccc4)cc3)o2)cc1 [RK-24] .
Reply | 6.00 to 7.00

* * *

test system: HCV 1b genotype; assay: HCV replicon assay (HCV-neo replicon cells, wild-type); assay type: cell-based, Hepatitis C virus; details: Hepatitis C virus, HCV 1b genotype replicon; class symbol; read-out: EC50 Range against HCV 1b
Collected EC50 values appear next to each entry.

Ask | Recorded EC50 of O=C(Nc1ccc(-c2nc[nH]c2-c2ccc(NC(=O)[C@@H]3CCCN3C(=O)[C@H](O)c3ccccc3)cc2)cc1)[C@@H]1CCCN1C(=O)[C@H](O)c1ccccc1 , please.
Reply | < 4.57 nM

* * *

System: HCV 1b genotype
Test: HCV replicon assay (HCV-neo replicon cells, wild-type)
Format: cell-based, Hepatitis C virus
Conditions: Hepatitis C virus, HCV 1b genotype replicon; class symbol; read-out: EC50 Range against HCV 1b
Protocol: An HCV Replicon assay was utilized in the present disclosure, and was prepared, conducted and validated as described in commonly owned PCT/US2006/022197 and in O'Boyle et al., Antimicrob. Agents Chemother, 49(4):1346-1353 (April 2005). […] The compounds were determined to have differing degrees of reduced inhibitory activity on cells containing mutations vs. the corresponding inhibitory potency against wild-type cells. […]
measure_name: EC50

molecule	measure_name	value_observed
O=C(Nc1ccc(-c2cc(-c3ccc(NC(=O)[C@@H]4CCCN4C(=O)c4cc5ccccc5o4)cc3)[nH]n2)cc1)[C@@H]1CCCN1C(=O)c1cc2ccccc2o1	EC50	100 to 999 nM
CC(=O)N1CCC[C@H]1C(=O)Nc1ccc(-c2nc(-c3ccc(NC(=O)[C@@H]4C=CCN4C(=O)[C@@H]4CCCO4)cc3)cs2)cc1	EC50	1000 to 10000 nM

Ask | Given CC(C)C(=O)N1CCC[C@H]1C(=O)Nc1ccc(-c2cc(-c3ccc(NC(=O)[C@@H]4CCCN4C(=O)C(C)C)cc3)[nH]n2)cc1 , state its recorded EC50.
Reply | 100 to 999 nM

Ask | Repeat for the following molecule: O=C(Nc1ccc(-c2cnc(-c3ccc(NC(=O)[C@@H]4CCCN4C(=O)[C@H]4CCCN4)cc3)o2)cc1)[C@@H]1CCCN1C(=O)[C@H]1CCCN1
Reply | 1000 to 10000 nM

Ask | And then CO[C@@H](C(=O)N1CCC[C@H]1C(=O)Nc1ccc(-c2cc(-c3ccc(NC(=O)[C@@H]4CCCN4C(=O)[C@H](OC)c4ccccc4)cc3)[nH]n2)cc1)c1ccccc1 , what is it?
Reply | < 4.57 nM

Ask | Now the molecule CC(=O)N1CCC[C@H]1C(=O)Nc1ccc(-c2nnc(-c3ccc(NC(=O)[C@@H]4CCCN4C(=O)Cc4cccs4)cc3)o2)cc1
Reply | 1000 to 10000 nM

Ask | O=C(Nc1ccc(-c2cc(-c3ccc(NC(=O)[C@@H]4CCCN4C(=O)C4CCC4)cc3)[nH]n2)cc1)[C@@H]1CCCN1C(=O)C1CCC1 ?
Reply | 100 to 999 nM

Ask | Next up: C[C@H](NC(=O)c1ccco1)C(=O)Nc1ccc(-c2nnc(-c3ccc(NC(=O)[C@H](C)NC(=O)c4ccco4)cc3)o2)cc1
Reply | 1000 to 10000 nM

Ask | Input C[C@H](NC(=O)OCc1ccccc1)C(=O)Nc1ccc(-c2n[nH]nc2-c2ccc(NC(=O)[C@H](C)NC(=O)OCc3ccccc3)cc2)cc1
Reply | 4.57 to 99 nM
